Origin of measurements: paper PMC12864922

# Tgt: TDP-43 (Homo sapiens, UniProt Q13148 1-414)
# Sequence (Q13148 whole entry): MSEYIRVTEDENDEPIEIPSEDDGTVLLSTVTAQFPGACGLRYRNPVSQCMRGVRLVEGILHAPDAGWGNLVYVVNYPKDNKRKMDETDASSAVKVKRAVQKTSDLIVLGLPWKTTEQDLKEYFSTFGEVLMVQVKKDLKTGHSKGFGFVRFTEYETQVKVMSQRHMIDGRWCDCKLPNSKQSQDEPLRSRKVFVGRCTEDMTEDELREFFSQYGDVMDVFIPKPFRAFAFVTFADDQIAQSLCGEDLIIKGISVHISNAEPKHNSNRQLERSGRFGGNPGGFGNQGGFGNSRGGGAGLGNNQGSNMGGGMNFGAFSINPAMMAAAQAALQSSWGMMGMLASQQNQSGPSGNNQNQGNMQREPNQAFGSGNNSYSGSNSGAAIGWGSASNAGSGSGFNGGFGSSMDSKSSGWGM
# Protocol Text: RNA Bind-n-Seq with designed 260-mer pool; 25 mM Tris-HCl, 150 mM KCl, 3 mM MgCl2, BSA (printed 500 mg/mL), 20 units/mL SUPERase IN; pH not stated; 500 nM RNA pool, 1 h, 4 C; TDP-43 5, 50, 500 nM; high values mean tight binding
# Applied Conditions: protein: recombinant; tags: SBP (GST cleaved off with PreScission; pGEX-GST-SBP)
Whole data set: some 9,900 sequences, median “r (bound/input frequency ratio)” near 0.7, cut for the highest 2% near 6.5. The sample as a whole holds a higher share of the highest values than the screen did.
# maps each entry to its binding signal
Endpoint: binding signal

{"Binder": "ENSMUSG00000029028.57|Lrrc47 (ssRNA) RNA: GGGAGUUCUACAGUCCGACGAUCGCUUCGAUAUCCGCAUGCUAGUAGAUCUUUGUAGGUGUAGGUAUGCUGUAGGUAUCUGGGUGUGGGUAUGCUGUAGAUGUCUGUGUAGGUGUGGAUAUGCUGUAGGUAUCUGGGUGUGCUGUAGGUGUCUGUGUGGGUGUGGGUGUGCUGUGGGUGUCUGUGUGGGUGUGCUGUAGGUGUCUGUAGGUGUGGGUAUGCUGCAGGUGUGGGUGUGCUGUAGAUCUCUAUAGGUGUGGGUGUGCUGUAGGGGUCUGUGUGGGUAUAGGUGUGGGUGUGCUGUCUCUUGCGGUCGCACUAGUGUGGAAUUCUCGGGUGUCAAGG", "Test Value": "6.24 R (bound/input frequency ratio)"}
{"Binder": "ENSMUSG00000031028.669|Tub (ssRNA) RNA: GGGAGUUCUACAGUCCGACGAUCGCUUCGAUAUCCGCAUGCUAAUUUCUCUAGCUGAGAGCACACUUAGCCAGUUUUCACGCCUAGAACAUAUAUGUCGAUUUGCACAUGAUUGUCUUUUCCUAUUUUGGAGUGGUCAGACAUUUUAUUUUUGUUCAAAAUUAUCUGGAGUUUUAGACAAACUUGCAAAACUGUGCUUUUAUUAAGUGACUUUUUGAAUAAACUUUUUGGUAUUCUGAAGCAAAUGUAUUUAUUUAUUGGUAUGUGCAAUGACAAACUUGGUAUUUUCCCAUAAUGACAUUAUCUCUUGCGGUCGCACUAGUGUGGAAUUCUCGGGUGUCAAGG", "Test Value": "0.0963 R (bound/input frequency ratio)"}
{"Binder": "ENSMUSG00000090935.52|Synj2bp (ssRNA) RNA: GGGAGUUCUACAGUCCGACGAUCGCUUCGAUAUCCGCAUGCUAGUGUCCCUGAGAGUACAGCACAGGUUACCAGUGCAGAAUGGACCUAUAGUACAUCGAGGUGAAGGAGAGCCAAGUGGAGUUCCUGUAGCUAUGGUGCUGCUACCAGUGUUUGCCCUCACCAUGGUAGCAGUUUGGGCCUUCGUGAGAUACCGAAAGCAGCUUUGAAAUGCUUGCUGUCUUCCAGUGUGUCCAAUGAACUCUCUCUCUCACUCACCAUCUCUGACAUCCUCCCAUAUUCUUUCUCCUCCACAUAGCCAAUACUCUUGCGGUCGCACUAGUGUGGAAUUCUCGGGUGUCAAGG", "Test Value": "1.19 R (bound/input frequency ratio)"}
{"Binder": "ENSMUSG00000004113.292|Cacna1b (ssRNA) RNA: GGGAGUUCUACAGUCCGACGAUCGCUUCGAUAUCCGCAUGCUACAGUGUGCACAGAUAGCUGGGAGGCCACGAGAGAAAGGUUGCACACAGACAGGCAGGCACUCCUUGGUGUGGUCUCUCUGUUUUGAAACUUCUGAUGACUUCUUGGUGGCUUGUUGUCUUCUACCCCAUGUUUCUCACAGGAUCUGUGUGUGUGUGUGUGUGUGUGUGUGUGUGUGUGUGUGUGUGUGUUAGCAUGUGUGUAUUAGCGUGUGUGAGUGUGUGAGCAUGCACGAGUCAUAGGAGAUGCAGGUGUAUGUGUGCUCUUGCGGUCGCACUAGUGUGGAAUUCUCGGGUGUCAAGG", "Test Value": "6.93 R (bound/input frequency ratio)"}
